- assay target: SCD1 (Homo sapiens)
- Construct: host or cells: S. cerevisiae ole1Δ strain, plasmid pRS316 with TDH3 promoter and CYC1 terminator
- Sequence (O00767 1-359): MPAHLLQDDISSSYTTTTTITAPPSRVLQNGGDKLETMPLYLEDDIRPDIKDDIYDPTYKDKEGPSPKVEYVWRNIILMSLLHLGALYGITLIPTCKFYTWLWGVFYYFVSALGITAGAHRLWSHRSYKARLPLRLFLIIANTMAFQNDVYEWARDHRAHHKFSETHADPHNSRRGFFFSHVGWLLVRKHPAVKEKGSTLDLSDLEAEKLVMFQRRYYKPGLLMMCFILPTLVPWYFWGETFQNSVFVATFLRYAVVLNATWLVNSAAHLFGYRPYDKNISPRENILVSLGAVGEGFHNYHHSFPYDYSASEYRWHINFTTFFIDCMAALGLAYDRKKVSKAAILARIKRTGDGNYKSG
- assay method text: Growth inhibition of humanized yeast expressing SCD1 as sole desaturase
- Format: cell-based
- measurement setup: growth of humanized yeast strain expressing human SCD1
property name: IC50

Past entries and their recorded results:
CC(C)n1ncc2ccc(-c3noc(C4CCN(C(=O)c5ncco5)CC4)n3)cc21 :: 0.848 µM
CC(C)n1ncc2ccc(N3CC4(CCN(C(=O)OC(C)(C)C)CC4)C3)cc21 :: > 45 µM

As a next step, examine the molecule that follows.
Lookup: Data request, read-out IC50, for Cc1cc(N2CCN(c3nc(-c4ccc5cnn(C(C)C)c5c4)no3)CC2)on1
Found: > 45 µM
